Test: inhibitors of polyQ protein aggregation (AID 1604)
Conditions: polyglutamine-induced protein aggregation inhibition assay; stronger effect = higher value; concentration not given here
Would you mind telling me the reported inhibition of aggregation of each entry?
Answers are plain numbers, in %.

As a guide, the following entries are already answered.
{"molecule": "O=C(CCCN1CCC(O)(c2ccc(Cl)cc2)CC1)c1ccc(F)cc1", "uom": "%", "recorded-measurement": 81.4}
{"molecule": "CN(C)CCN(Cc1cccs1)c1ccccn1", "uom": "%", "recorded-measurement": 81.4}

Hi team, please reply with inhibition of aggregation for each item in this list.
1. O=C1c2ccc(O)c(O)c2C(=O)c2c(O)ccc(O)c21
2. NC(=O)c1ccc[n+]([C@@H]2O[C@H](COP(=O)([O-])OP(=O)(O)OC[C@H]3O[C@@H](n4cnc5c(N)ncnc54)[C@H](OP(=O)(O)O)[C@@H]3O)[C@@H](O)[C@H]2O)c1
3. O=C(O)c1c2ccccc2cc2ccccc12

Completion:
38.2
-21.6
33.3

Hi team, please reply with inhibition of aggregation for each item in this list.
1. Cc1c(N)c(=O)n(-c2ccccc2)n1C
2. CCCC(CCC)C(=O)O
3. CC(CCc1ccccc1)NCC(O)c1ccc(O)c(C(N)=O)c1 (stereo not drawn)

Completion:
81.5
40.9
83.1

* * *

Would you mind telling me the reported fold change of each entry?
Experiment: sensitizers of A549 cells to miR-34 induction, primary screen, imaging, A549 dox-inducible miR-34, nuclei and caspase counts (AID 1347080)
Details: A549 miR-34 inducible, Hoechst nuclei count, 48 h; stronger effect = lower value; cell number ratio, induced over uninduced
Give bare numbers.

As a guide, the following entries are already answered.
{"compound": "CC[C@H](CO)NCCN[C@H](CC)CO", "fold change": 0.912}
{"compound": "CCOc1ccc(-c2nc3ccc(-c4nc5ccc(N6CCN(C)CC6)cc5[nH]4)cc3[nH]2)cc1", "fold change": 1.13}
{"compound": "Cc1ccc(-n2nc(C(C)(C)C)cc2NC(=O)Nc2ccc(OCCN3CCOCC3)c3ccccc23)cc1", "fold change": 0.925}
{"compound": "COc1cc2ccc(=O)oc2cc1O", "fold change": 0.946}

Hi team, please reply with fold change for each item in this list.
1. Cc1ccc(Nc2c(F)cccc2Cl)c(CC(=O)O)c1
2. CCOC(=O)c1ccc(O)cc1
3. O=C(O)c1cccc(-c2noc(-c3ccccc3F)n2)c1
4. CC(C)COC(=O)c1ccc(N)cc1
5. O=C(O)Cc1nn(Cc2ccc(Br)cc2F)c(=O)c2ccccc12
6. C[C@@H]1C(=O)O[C@H]2C[C@@]34[C@H]5C[C@@H](C(C)(C)C)[C@]36[C@@H](OC(=O)[C@@H]6O)O[C@@]4(C(=O)O5)[C@]21O

Completion:
1: 0.931; 2: 0.873; 3: 0.927; 4: 0.964; 5: 0.972; 6: 0.95

Hi team, please reply with fold change for each item in this list.
1. CCOC(=O)CCC(=O)O[C@H]1[C@H](O[C@@H]2[C@@H](C)[C@H](O[C@H]3C[C@@](C)(OC)[C@@H](O)[C@H](C)O3)[C@@H](C)C(=O)O[C@H](CC)[C@@](C)(O)[C@H](O)[C@@H](C)C(=O)[C@H](C)C[C@@]2(C)O)O[C@H](C)C[C@@H]1N(C)C
2. Nc1nc(/C(=C/CC(=O)O)C(=O)N[C@@H]2C(=O)N3C(C(=O)O)=CCS[C@H]23)cs1
3. CN(C)CCCO[C@@H]1[C@H]2OC(C)(C)O[C@H]2O[C@@H]1[C@H](O)CO
4. CN(C(=O)c1c(O)c2ccccc2n(C)c1=O)c1ccccc1
5. O=[N+]([O-])c1ccc(O)c2ncccc12
6. NCCCC(N)(C(=O)O)C(F)F (configuration not stated)
7. CC(C)Nc1cccnc1N1CCN(C(=O)c2cc3cc(NS(C)(=O)=O)ccc3[nH]2)CC1
8. O=C(O)c1cc2cc(F)ccc2[nH]1

Completion:
1: 0.87; 2: 0.926; 3: 0.9; 4: 0.967; 5: 0.979; 6: 1.13; 7: 0.904; 8: 0.936

Hi team, please reply with fold change for each item in this list.
1. CCN(CC)C(=O)c1cccnc1
2. Oc1cc2c(cc1O)[C@@H]1c3ccc(O)c(O)c3OC[C@]1(O)C2
3. CCCCCCCCCCCCCCC[C@H](O)[C@@H](N)CO

Completion:
0.953
0.884
0.915

Hi team, please reply with fold change for each item in this list.
1. C[C@@H](NCCCc1cccc(C(F)(F)F)c1)c1cccc2ccccc12
2. COCC(=O)Nc1c(I)c(C(=O)NCC(O)CO)c(I)c(C(=O)N(C)CC(O)CO)c1I (configuration not stated)
3. NCCC(O)(P(=O)(O)O)P(=O)(O)O

Completion:
1. 0.971
2. 0.856
3. 0.878

Hi team, please reply with fold change for each item in this list.
1. CNC(=O)c1c(I)c(NC(C)=O)c(I)c(C(=O)O)c1I
2. CN1CCN(c2c(F)cc3c(=O)c(C(=O)O)cn(CCF)c3c2F)CC1
3. O=C1c2ccccc2S(=O)(=O)N1CCCCN1CCN(c2ncccn2)CC1
4. C=CCN1C[C@H](C(=O)N(CCCN(C)C)C(=O)NCC)C[C@@H]2c3cccc4[nH]cc(c34)C[C@H]21
5. CCOC(=O)[C@H](CCc1ccccc1)N[C@@H](C)C(=O)N1Cc2cc(OC)c(OC)cc2C[C@H]1C(=O)O
6. Cc1ncc(CSSCc2cnc(C)c(O)c2CO)c(CO)c1O

Completion:
[0.982, 0.864, 0.855, 0.881, 0.937, 0.95]

Hi team, please reply with fold change for each item in this list.
1. CCCCC(CC)COc1ccc(-c2nc(-c3ccc(OC)cc3)nc(-c3ccc(OCC(CC)CCCC)cc3O)n2)c(O)c1 (configuration not stated)
2. [O-][n+]1cccc(CO)c1

Completion:
1. 0.959
2. 0.861

Hi team, please reply with fold change for each item in this list.
1. C=C[C@H]1CN2CC[C@H]1C[C@H]2[C@H](O)c1ccnc2ccc(OC)cc12
2. CC(=O)OCC(=O)[C@@]1(O)CC[C@H]2[C@@H]3C[C@H](C)C4=CC(=O)C=C[C@]4(C)[C@H]3[C@@H](O)C[C@@]21C
3. C[C@H](O)C(=O)Nc1c(I)c(C(=O)NC(CO)CO)c(I)c(C(=O)NC(CO)CO)c1I
4. CC(C)Cn1cnc2c(N)nc3ccccc3c21
5. NC(=O)C1(N2CCCCC2)CCN(CCCC(=O)c2ccc(F)cc2)CC1

Completion:
1: 0.942; 2: 0.982; 3: 0.849; 4: 0.846; 5: 0.938

Hi team, please reply with fold change for each item in this list.
1. CN1CCN(C2Cc3ccccc3Sc3ccc(Cl)cc32)CC1 (configuration not stated)
2. CCC(C)(CN(C)C)OC(=O)c1ccccc1 (configuration not stated)
3. c1ccc2c(Cc3c[nH]c4ccccc34)c[nH]c2c1
4. COc1cc(C=O)ccc1O

Completion:
[1.08, 0.964, 0.926, 0.931]

Prompt: Returns the measured fold change for the input compound. Input: NC(=O)Cc1cccc(C(=O)c2ccccc2)c1N
Completion: 0.902

* * *

Experiment: decreased DLD-1 cellular survival, CellTiter-Glo luminescent readout, NPC compound collection, primary HTS (AID 1117346)
Settings: DLD-1 viability, CellTiter-Glo luminescence; at 20 µM (top of the series)
Activity calls are given as the source filed them.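 Rule for the calls: active = compounds that lower survival of DLD-1 colon cancer cells in the luminescence readout, no cutoff given; inactive = the rest.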
Select the matching outcome among yes (1) = active, no (0) = inactive

{"molecule": "CCOC(=O)c1cnc2c(cnn2CC)c1NN=C(C)C", "class-label": "no (0)"}
{"molecule": "NC(N)=NC(N)=NCCc1ccccc1", "class-label": "no (0)"}

Prompt: Write down the call the test reported for this molecule. Item: C[C@@]12C(=O)OC(=O)[C@]1(C)C1CCC2O1
Completion: yes (1)

* * *

Would you mind telling me the reported cell count of each entry?
Experiment: sensitizers of A549 cells to miR-34 induction, primary screen, imaging, A549 dox-inducible miR-34, nuclei and caspase counts (AID 1347080)
Details: A549 miR-34 inducible, Hoechst nuclei count, 48 h; measured here: total cells without miR-34 induction
Give bare numbers.

As a guide, the following entries are already answered.
{"compound-smiles": "CC(C)Nc1cccnc1N1CCN(C(=O)c2cc3cc(NS(C)(=O)=O)ccc3[nH]2)CC1", "recorded-measurement": 10200}
{"compound-smiles": "FCOC(C(F)(F)F)C(F)(F)F", "recorded-measurement": 9480}
{"compound-smiles": "C[C@@H](NCCCc1cccc(C(F)(F)F)c1)c1cccc2ccccc12", "recorded-measurement": 6150}
{"compound-smiles": "CCCCCCCCCc1ccc(OCCOCCOCCOCCOCCOCCOCCOCCOCCO)cc1", "recorded-measurement": 3120}

Hi team, please reply with cell count for each item in this list.
1. COc1c2ccoc2cc2oc(=O)ccc12
2. CC[C@H](CO)NCCN[C@H](CC)CO
3. Cc1ccc(-n2nc(C(C)(C)C)cc2NC(=O)Nc2ccc(OCCN3CCOCC3)c3ccccc23)cc1
4. CC[C@H]1OC(=O)[C@H](C)[C@@H](O[C@H]2C[C@@](C)(OC)[C@@H](O)[C@H](C)O2)[C@H](C)[C@@H](O[C@@H]2O[C@H](C)C[C@H](N(C)C)[C@H]2O)[C@](C)(O)C[C@@H](C)/C(=N\OCOCCOC)[C@H](C)[C@@H](O)[C@]1(C)O

Completion:
[9530, 9410, 8380, 12000]

Prompt: Returns the measured cell count for the input molecule. Input: O=C(OOC(=O)c1ccccc1)c1ccccc1
Completion: 11400
